This collection of values is drawn from the supplement of paper PMC10567573.

# assay.details: protein stability index of a GFP-peptide fusion (GPS, HEK-293T) (PSI 1-6); higher = more stable;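 also: 24-mer peptide tiles fused after GFP, lentivirally expressed, FACS-sorted into six equal bins by GFP/DsRed ratio, decoded by Illumina sequencing, PSI is the read-weighted mean bin number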
# experimental.context: treatment: MLN4924 1 uM, 8 h; c terminus: a fixed tail appended
# protein stability index listing for each entry below
Just the number, please, no unit after it.

Check out these entries, answers already filled in.
>>> value("TAKDFIVGKSLTILGRTFFIYDCD [EFHC1]")
2.28
>>> value("GYKEFFMKCQSYCEPPSYRPMHHE [CDC25A]")
2.42
>>> value("RRVPPRFSIPPTNHEIMPGGSVNI [PTPRD]")
3.39
>>> value("VFAPVYFPEELHRKAALEQDLAFW [HMOX1]")
2.4
>>> value("FWSVMFFLMLINLGLGSMIGTMAG [SLC6A17]")
3.49
>>> value("LGFGPTYVVLAYTLPPASRFIIIF [SOAT1]")
3.03

Please find the next sequence below.
Q. Could you share which protein stability index value was measured for EPNTFSPANVDASVMFRKWRDSKG [UBE2R2] ?
A. 4.4

###

# assay.details: protein stability index of a GFP-peptide fusion (GPS, HEK-293T) (PSI 1-6); higher = more stable
# experimental.context: treatment: MLN4924 1 uM, 8 h; c terminus: a fixed tail appended
outcome.measure: protein stability index
Just the number, please, no unit after it.

>>> value("VNQPNNNGFTPLHFAAASTHGALC [ANKRD44]")
3.06

Please find the next sequence below.
Q. Could you share which protein stability index value was measured for EVVNMAVIVPKEEGVISVSEDRTV [WDFY2] ?
A. 4.22

###

# protein stability index listing for each entry below
# assay.details: protein stability index of a GFP-peptide fusion (GPS, HEK-293T) (PSI 1-6); higher = more stable
# experimental.context: treatment: DMSO; c terminus: a fixed tail appended
Just the number, please, no unit after it.

Check out these entries, answers already filled in.
>>> value("LERYVASLMPLQKSISPWKSPPQL [DENND6A]")
2.16
>>> value("RAMHLMKKREKQREQMEQMKQRIA [FAM50A]")
3.27
>>> value("DAELATRAIPELTKLLNDEDQVVV [CTNNB1]")
4.79
>>> value("KEAFDTIQEQKVVLEENGEKNQVQ [SASS6]")
5.49
>>> value("CLAGCEGAHEQVDFKDFYPAIADL [P3H4]")
3.59
>>> value("KRIEAEEAIKGLNGQKPLGAAEPI [ELAVL3]")
4.77
>>> value("TSSCPNVSERSFDNVRSLKVESGA [CRYBA1]")
5
>>> value("ALNEQACRNGSSIQIAFEEVPQLP [C2CD2L]")
3.83
>>> value("MSIVIPLGVDTAETSYLEMAAGSE [KMT2E]")
2.76
>>> value("NEPSINFYKRRGASDLSSEEGWRL [SAT1]")
3.69

Q. Could you share which protein stability index value was measured for KKRTEQEETIASLQMEVCRLKKEE [CEP70] ?
A. 5.22

Q. Could you share which protein stability index value was measured for AYALPAGLSAPARCLVRCLLRREP [TRIB3] ?
A. 2.23

Q. Could you share which protein stability index value was measured for LGFKANIMNEKCVVENAEKILGYL [SLC6A17] ?
A. 2.43

###

# protein stability index listing for each entry below
# assay.details: protein stability index of a GFP-peptide fusion (GPS, HEK-293T) (PSI 1-6); higher = more stable
# experimental.context: treatment: MLN4924 1 uM, 8 h; c terminus: a fixed tail appended
Just the number, please, no unit after it.

Check out these entries, answers already filled in.
>>> value("LFGGEFEDSVFEERPERRSGPPAS [C8orf76]")
4.69
>>> value("VRDGFSATFEKILESELLRGTQYS [PSD2]")
2.31
>>> value("QPRKKYVQRKSDFDQTVFQEVFEP [NETO1]")
4.26
>>> value("VDFLEPDSGTCPEVDEEGFTVRPD [FCHO1]")
5.43
>>> value("PPGGSGSEPYKLLPGAVATIVKPL [HNF4A]")
3.58

Q. Could you share which protein stability index value was measured for LMRTCERLVKEGRFVPSNPIGILT [PPTC7] ?
A. 2.53

Q. Could you share which protein stability index value was measured for DQTSLLVVDKETDNMYRLAHFSPF [PDZK1] ?
A. 2.75

Q. Could you share which protein stability index value was measured for AAEGEGSPPAVAAVAGPPAAAEVG [ANKRD17] ?
A. 5.21

Q. Could you share which protein stability index value was measured for LRAPTISDLLNDQDLLDVIRIKLD [EDARADD] ?
A. 2.06

Q. Could you share which protein stability index value was measured for SWSQYEMPEFSSDSTMRILSNLVQ [RTP4] ?
A. 2.59

Q. Could you share which protein stability index value was measured for KIQNHGHRVLQRLEQRRQQASERE [FCHSD1] ?
A. 4.51

Q. Could you share which protein stability index value was measured for VGCKGSKAGIEQEGYWLPGDEISI [ZMYND11] ?
A. 3.13

Q. Could you share which protein stability index value was measured for VARCEVMAAMFNGNYMEAKSVLIP [RHOBTB3] ?
A. 2.24

Q. Could you share which protein stability index value was measured for KANNLSSLSKKYRQDAKYLNMRST [SEC22B] ?
A. 3.33

Q. Could you share which protein stability index value was measured for SLYENDCIFDKFECVWNGSDSVIM [PPP2R2B] ?
A. 2.07

Q. Could you share which protein stability index value was measured for RFRRFRFQEAAGPREALSRLQELC [ZNF263] ?
A. 2.58

Q. Could you share which protein stability index value was measured for KCKKKITGEIMHALKMTWHVHCFT [PDLIM7] ?
A. 2.7

Q. Could you share which protein stability index value was measured for VTDINDNAPKFQAENLDVKINENV [PCDHGA10] ?
A. 5.01

###

# assay.details: protein stability index of a GFP-peptide fusion (GPS, HEK-293T) (PSI 1-6); higher = more stable
# experimental.context: treatment: MLN4924 1 uM, 8 h; c terminus: a fixed tail appended
outcome.measure: protein stability index
Just the number, please, no unit after it.

Q. Could you share which protein stability index value was measured for MGKRDTADIISTVEFNHTGELLAT [PPP2R2C] ?
A. 3.89

Q. Could you share which protein stability index value was measured for KLWDPVDGSVVRDFEHRPKAPVVE [WDR88] ?
A. 4.23

Q. Could you share which protein stability index value was measured for QVTAPGAPPLQAETPGSAVDYPLH [TNXB] ?
A. 5.29

###

# assay.details: protein stability index of a GFP-peptide fusion (GPS, HEK-293T) (PSI 1-6); higher = more stable
# experimental.context: treatment: MLN4924 1 uM, 8 h; c terminus: a fixed tail appended
Rule: protein stability index under 4 gives false, otherwise true.

>>> assigned_category("VSISIISSTSGGSGYGFRPSMVSG [KRT71]")
"false"
>>> assigned_category("DDSCLNNDIPHSIPLEQGSSCNGP [FAN1]")
"true"
>>> assigned_category("FSGSLEPVACGSVLSEGSPLTEQE [SRPK2]")
"true"
>>> assigned_category("AFAFQNTFPHSISAKNTSHPGSGT [SASS6]")
"false"

Q. Reported protein stability index at or above 4? RFSHMSERDLQELSIQVEEERRAR [ZMAT5]
A. true

Q. Reported protein stability index at or above 4? GLHVQHMGTSHGITRPSPRRSNSP [CCDC6]
A. true

Q. Reported protein stability index at or above 4? WKCKNARGQVGLVPKNYVVVLSDG [NCK2]
A. false

Q. Reported protein stability index at or above 4? ITVGLVFLCLQYRLRGKLRAEIEN [MOG]
A. false

Q. Reported protein stability index at or above 4? GHNSPLYKRQEESGAAASLNVDAA [CHIT1]
A. true

Q. Reported protein stability index at or above 4? ELHEECEGNHPSARKLTAQRRAST [NET1]
A. true

Q. Reported protein stability index at or above 4? PPPPPNEINPPPHTMEEEEDDDWG [EIF5]
A. true

Q. Reported protein stability index at or above 4? SSVCVQGRCIHAGCDRIIGSKKKF [ADAMTS4]
A. false

Q. Reported protein stability index at or above 4? ALAVCLSFFYPVLFVLFMFFGMAF [SOAT1]
A. false

Q. Reported protein stability index at or above 4? FEPVKSFFKGLVEAVESTLQTPLD [TRIM14]
A. false

###

# assay.details: protein stability index of a GFP-peptide fusion (GPS, HEK-293T) (PSI 1-6); higher = more stable
# experimental.context: treatment: DMSO; c terminus: a fixed tail appended
outcome.measure: protein stability index

Check out these entries, answers already filled in.
>>> value("FVAGGISGTVAAVLTLPFDVVKTQ [SLC25A39]")
2.95
>>> value("LNVNLNSVVLRRARGGAVSARYVL [DUSP5]")
2.19
>>> value("ETIEGAPPLWAASAAGHLDVVRSL [FEM1A]")
3.78

Q. Could you share which protein stability index value was measured for LHFIATNYLIFSQKPEFQDLSVEE [RHOBTB3] ?
A. 2.5

Q. Could you share which protein stability index value was measured for LVGDSDVGKGEILESLQDGAAESP [RAB40C] ?
A. 5.35

Q. Could you share which protein stability index value was measured for KAPSTDDATWAAVAACTKEIDTQG [C10orf62] ?
A. 5.14

Q. Could you share which protein stability index value was measured for LSLDNSPLLQSIHQLDFVQVKASS [TRIM9] ?
A. 2.73
